target: T1, HLA-A*02:01 (human); experiment: UV-ligand exchange, anti-b2m ELISA; peptide exchange yield grade (+ >=10%, ++ >=20%, +++ >=50, ++++ >=75%)
T1 construct: Captured on streptavidin plates and detected with anti-b2m; also called peptide-receptive MHC molecules; MHC class I
I'd be grateful if you could share measured peptide exchange yield for these entries.

Solved cases (3 shown):
binder=VLVPYEPPQV observed="20 to 50%"
binder=YTAQIGADIAL observed="50 to 75%"
binder=KVADYIPQL observed="50 to 75%"

Now, please, on to the next binder.
input: Please look at this binder and report its peptide exchange yield: VLPKLYVKL
output: 20 to 50%

Where these numbers come from: patent US20180282393A1
